# TARGET_OR_TEST_SYSTEM: Histone deacetylase 8 (Homo sapiens, UniProt Q9BY41)
# METHOD_DESCRIPTION: Inhibition of recombinant HDAC8 (unknown origin) using fluorogenic substrate Boc-Lys (acetyl)-AMC after 20 mins by homogeneous fluorescence release assay
// classify: if (IC50 < 1000 nM) YES else NO

| SAMPLE_SMILES | CLASS |
| --- | --- |
| Nc1ccccc1NC(=O)c1ccc(CNCc2nc(-c3ccc(F)cc3)no2)cc1 | NO |

Enquiry: Record Nc1ccccc1NC(=O)c1ccc(CNCc2nc(-c3ccc(C(F)(F)F)cc3)no2)cc1 : is its IC50 strictly below 1000 nM?
Return: NO

Enquiry: Record O=C(NO)c1ccc(CNCc2nc(-c3ccccc3)no2)cc1 : is its IC50 strictly below 1000 nM?
Return: YES

Enquiry: Record O=C(NO)c1ccc(CNCc2nc(-c3cccs3)no2)cc1 : is its IC50 strictly below 1000 nM?
Return: NO

Enquiry: Record O=C(NO)c1ccc(CNCc2nc(-c3ccc(F)cc3)no2)cc1 : is its IC50 strictly below 1000 nM?
Return: YES

Enquiry: Record Cc1ccc(-c2noc(CNCc3ccc(C(=O)NO)cc3)n2)cc1 : is its IC50 strictly below 1000 nM?
Return: NO

Enquiry: Record Nc1ccccc1NC(=O)c1ccc(CNCc2nc(-c3ccccc3)no2)cc1 : is its IC50 strictly below 1000 nM?
Return: NO

Enquiry: Record Cc1ccc(-c2noc(CNCc3ccc(C(=O)Nc4ccccc4N)cc3)n2)cc1 : is its IC50 strictly below 1000 nM?
Return: NO

Enquiry: Record O=C(NO)c1ccc(CNCc2nc(-c3ccc(C(F)(F)F)cc3)no2)cc1 : is its IC50 strictly below 1000 nM?
Return: NO

Enquiry: Record COc1ccc(-c2noc(CNCc3ccc(C(=O)Nc4ccccc4N)cc3)n2)cc1 : is its IC50 strictly below 1000 nM?
Return: NO

====

Each entry below carries its recorded pIC50.
# TARGET_OR_TEST_SYSTEM: Histone deacetylase 8 (Homo sapiens, UniProt Q9BY41)
# Sequence (Q9BY41 whole entry): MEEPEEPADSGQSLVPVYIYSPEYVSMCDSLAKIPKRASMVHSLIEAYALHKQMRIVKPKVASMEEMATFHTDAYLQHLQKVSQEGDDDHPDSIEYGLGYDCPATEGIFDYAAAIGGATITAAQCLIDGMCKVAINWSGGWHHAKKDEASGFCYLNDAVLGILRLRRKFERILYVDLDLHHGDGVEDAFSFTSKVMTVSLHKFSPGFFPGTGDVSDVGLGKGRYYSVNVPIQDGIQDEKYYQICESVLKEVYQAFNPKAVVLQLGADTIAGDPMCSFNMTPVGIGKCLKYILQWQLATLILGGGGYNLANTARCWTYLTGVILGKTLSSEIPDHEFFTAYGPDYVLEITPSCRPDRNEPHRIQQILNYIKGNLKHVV
# METHOD_DESCRIPTION: Inhibition of recombinant HDAC8 (unknown origin) using fluorogenic substrate Boc-Lys (acetyl)-AMC after 20 mins by homogeneous fluorescence release assay
pIC50: −log10 of the molar value.

Solved cases below.
| SAMPLE_SMILES | TARGET_OR_TEST_SYSTEM | MEASURED_RESULT |
| --- | --- | --- |
| Nc1ccccc1NC(=O)c1ccc(CNCc2nc(-c3ccccc3Cl)no2)cc1 | Histone deacetylase 8 (Homo sapiens, UniProt Q9BY41) | < 5.00 |
| O=C(NO)c1ccc(CNCc2nc(-c3ccc([N+](=O)[O-])cc3)no2)cc1 | Histone deacetylase 8 (Homo sapiens, UniProt Q9BY41) | 6.42 |
| COc1ccc(-c2noc(CNCc3ccc(C(=O)NO)cc3)n2)cc1 | Histone deacetylase 8 (Homo sapiens, UniProt Q9BY41) | 6.07 |
| Nc1ccccc1NC(=O)c1ccc(CNCc2nc(-c3cccnc3)no2)cc1 | Histone deacetylase 8 (Homo sapiens, UniProt Q9BY41) | < 5.00 |
| Nc1ccccc1NC(=O)c1ccc(CNCc2nc(-c3ccc(Cl)cc3)no2)cc1 | Histone deacetylase 8 (Homo sapiens, UniProt Q9BY41) | < 5.00 |
| Nc1ccccc1NC(=O)c1ccc(CNCc2nc(-c3cccs3)no2)cc1 | Histone deacetylase 8 (Homo sapiens, UniProt Q9BY41) | < 5.00 |

The observed pIC50 for Nc1ccccc1NC(=O)c1ccc(CNCc2nc(-c3ccc([N+](=O)[O-])cc3)no2)cc1 when tested with Histone deacetylase 8 (Homo sapiens, UniProt Q9BY41) stands at < 5.00

The observed pIC50 for O=C(NO)c1ccc(CNCc2nc(-c3ccc(Cl)cc3)no2)cc1 when tested with Histone deacetylase 8 (Homo sapiens, UniProt Q9BY41) stands at 6.46

====

# TARGET_OR_TEST_SYSTEM: Histone deacetylase 2 (Homo sapiens)
# Sequence (Q92769 whole entry): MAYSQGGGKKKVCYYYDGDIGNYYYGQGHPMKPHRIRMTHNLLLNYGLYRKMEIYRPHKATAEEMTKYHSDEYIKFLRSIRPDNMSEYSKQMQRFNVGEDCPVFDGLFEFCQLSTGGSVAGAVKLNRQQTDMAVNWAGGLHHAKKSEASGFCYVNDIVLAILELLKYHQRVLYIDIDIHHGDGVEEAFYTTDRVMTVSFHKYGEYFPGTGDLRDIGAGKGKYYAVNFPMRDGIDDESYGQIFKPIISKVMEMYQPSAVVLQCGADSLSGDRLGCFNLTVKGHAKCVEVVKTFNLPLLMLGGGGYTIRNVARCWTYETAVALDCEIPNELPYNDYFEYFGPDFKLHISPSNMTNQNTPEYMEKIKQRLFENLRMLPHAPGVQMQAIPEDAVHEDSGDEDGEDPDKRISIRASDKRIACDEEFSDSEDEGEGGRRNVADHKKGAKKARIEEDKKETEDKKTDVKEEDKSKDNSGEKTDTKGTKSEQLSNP
# METHOD_DESCRIPTION: Inhibition of recombinant HDAC2 (unknown origin) using fluorogenic substrate Boc-Lys (acetyl)-AMC after 20 mins by homogeneous fluorescence release assay
// classify: if (IC50 < 6 µM) rule met else rule not met

See these solved cases before continuing.
| SAMPLE_SMILES | TARGET_OR_TEST_SYSTEM | CLASS |
| --- | --- | --- |
| O=C(NO)c1ccc(CNCc2nc(-c3ccccc3)no2)cc1 | Histone deacetylase 2 (Homo sapiens) | rule not met |
| Nc1ccccc1NC(=O)c1ccc(CNCc2nc(-c3cccnc3)no2)cc1 | Histone deacetylase 2 (Homo sapiens) | rule not met |
| O=C(NO)c1ccc(CNCc2nc(-c3ccc(F)cc3)no2)cc1 | Histone deacetylase 2 (Homo sapiens) | rule not met |
| O=C(NO)c1ccc(CNCc2nc(-c3ccc([N+](=O)[O-])cc3)no2)cc1 | Histone deacetylase 2 (Homo sapiens) | rule not met |
| COc1ccc(-c2noc(CNCc3ccc(C(=O)NO)cc3)n2)cc1 | Histone deacetylase 2 (Homo sapiens) | rule not met |

Enquiry: Record Nc1ccccc1NC(=O)c1ccc(CNCc2nc(-c3ccccc3Cl)no2)cc1 : is its IC50 strictly below 6 µM?
Return: rule met

Enquiry: Record O=C(NO)c1ccc(CNCc2nc(-c3cccs3)no2)cc1 : is its IC50 strictly below 6 µM?
Return: rule not met

Enquiry: Record Nc1ccccc1NC(=O)c1ccc(CNCc2nc(-c3ccccc3)no2)cc1 : is its IC50 strictly below 6 µM?
Return: rule met

Enquiry: Record Nc1ccccc1NC(=O)c1ccc(CNCc2nc(-c3cccs3)no2)cc1 : is its IC50 strictly below 6 µM?
Return: rule met

====

Each entry below carries its recorded IC50.
# TARGET_OR_TEST_SYSTEM: Histone deacetylase 1 (Homo sapiens)
# Sequence (Q13547 whole entry): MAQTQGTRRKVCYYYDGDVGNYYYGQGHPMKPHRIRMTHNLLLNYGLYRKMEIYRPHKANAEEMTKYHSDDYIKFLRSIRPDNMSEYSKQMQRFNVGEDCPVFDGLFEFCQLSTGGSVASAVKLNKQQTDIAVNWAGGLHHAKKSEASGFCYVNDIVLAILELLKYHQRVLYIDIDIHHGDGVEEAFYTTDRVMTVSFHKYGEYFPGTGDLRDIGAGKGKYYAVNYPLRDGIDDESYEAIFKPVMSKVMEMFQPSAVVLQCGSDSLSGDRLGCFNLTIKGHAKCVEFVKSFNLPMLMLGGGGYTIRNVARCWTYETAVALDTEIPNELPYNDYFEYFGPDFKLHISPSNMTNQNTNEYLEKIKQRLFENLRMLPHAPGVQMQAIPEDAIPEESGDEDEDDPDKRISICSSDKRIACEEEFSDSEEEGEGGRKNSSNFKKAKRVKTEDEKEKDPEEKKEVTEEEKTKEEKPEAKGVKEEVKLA
# METHOD_DESCRIPTION: Inhibition of recombinant HDAC1 (unknown origin) using fluorogenic substrate Boc-Lys (acetyl)-AMC after 20 mins by homogeneous fluorescence release assay
Reply with just the number (in µM).

Solved cases below.
| SAMPLE_SMILES | UNIT_OF_MEASURE | IC50 |
| --- | --- | --- |
| Nc1ccccc1NC(=O)c1ccc(CNCc2nc(-c3cccs3)no2)cc1 | µM | 3.85 |
| O=C(NO)c1ccc(CNCc2nc(-c3ccc(Cl)cc3)no2)cc1 | µM | 3.85 |
| Nc1ccccc1NC(=O)c1ccc(CNCc2nc(-c3ccccc3)no2)cc1 | µM | 0.28 |
| Nc1ccccc1NC(=O)c1ccc(CNCc2nc(-c3ccccc3Cl)no2)cc1 | µM | 0.07 |
| O=C(NO)c1ccc(CNCc2nc(-c3ccccc3)no2)cc1 | µM | 5.73 |
| Nc1ccccc1NC(=O)c1ccc(CNCc2nc(-c3cccnc3)no2)cc1 | µM | 5.26 |

The observed IC50 for Nc1ccccc1NC(=O)c1ccc(CNCc2nc(-c3ccc(Cl)cc3)no2)cc1 when tested with Histone deacetylase 1 (Homo sapiens) stands at 0.09

The observed IC50 for COc1ccc(-c2noc(CNCc3ccc(C(=O)Nc4ccccc4N)cc3)n2)cc1 when tested with Histone deacetylase 1 (Homo sapiens) stands at 0.18

The observed IC50 for Nc1ccccc1NC(=O)c1ccc(CNCc2nc(-c3ccc(F)cc3)no2)cc1 when tested with Histone deacetylase 1 (Homo sapiens) stands at 0.11

The observed IC50 for O=C(NO)c1ccc(CNCc2nc(-c3ccc(F)cc3)no2)cc1 when tested with Histone deacetylase 1 (Homo sapiens) stands at 3.53

The observed IC50 for COc1ccc(-c2noc(CNCc3ccc(C(=O)NO)cc3)n2)cc1 when tested with Histone deacetylase 1 (Homo sapiens) stands at 8.32

====

# TARGET_OR_TEST_SYSTEM: UniProt Q13547
# METHOD_DESCRIPTION: Inhibition of recombinant HDAC1 (unknown origin) using fluorogenic substrate Boc-Lys (acetyl)-AMC after 20 mins by homogeneous fluorescence release assay
MEASURED_ATTRIBUTE: pIC50
Schema: pIC50 number; meaning minus log10 of the concentration expressed in molar units.

Solved cases below.
| SAMPLE_SMILES | MEASURED_ATTRIBUTE | MEASURED_RESULT |
| --- | --- | --- |
| O=C(NO)c1ccc(CNCc2nc(-c3ccc([N+](=O)[O-])cc3)no2)cc1 | pIC50 | 5.57 |
| Nc1ccccc1NC(=O)c1ccc(CNCc2nc(-c3ccc(C(F)(F)F)cc3)no2)cc1 | pIC50 | 5.56 |
| Cc1ccc(-c2noc(CNCc3ccc(C(=O)Nc4ccccc4N)cc3)n2)cc1 | pIC50 | 6.68 |

Record O=C(NO)c1ccc(CNCc2nc(-c3ccc(C(F)(F)F)cc3)no2)cc1 , field pIC50: 5.02

Record Nc1ccccc1NC(=O)c1ccc(CNCc2nc(-c3ccc([N+](=O)[O-])cc3)no2)cc1 , field pIC50: 7.22

Record Cc1ccc(-c2noc(CNCc3ccc(C(=O)NO)cc3)n2)cc1 , field pIC50: 5.16
